compounds and their reported relative viability
test system: NCI-H23; assay: relative viability (nuclei count vs DMSO), 5 days (fraction); higher = more cells survive; details: first compound 4 µM
Number, no unit, nothing else.

Consider the worked cases shown below.
INSERT INTO results (compound, numericresult) VALUES
  ('Clc1ccc(Nc2nnc(Cc3ccncc3)c3ccccc23)cc1 [Vatalanib] + N=C(N)NC(=N)NCCc1ccccc1 [Phenformin] (partner 250 µM)', 0.748),
  ('C[C@@H]1CN(CC(=O)Nc2ccc3c(c2)Cc2cccc(-c4cc(=O)cc(N5CCOCC5)o4)c2S3)C[C@H](C)O1 + CS(=O)(=O)CCNCc1ccc(-c2ccc3ncnc(Nc4ccc(OCc5cccc(F)c5)c(Cl)c4)c3c2)o1 [Lapatinib] (partner 2 µM)', 1.04),
  ('C[C@@H]1CN(CC(=O)Nc2ccc3c(c2)Cc2cccc(-c4cc(=O)cc(N5CCOCC5)o4)c2S3)C[C@H](C)O1 + Nc1nc2[nH]cc(CCc3ccc(C(=O)N[C@@H](CCC(=O)O)C(=O)O)cc3)c2c(=O)[nH]1 [Pemetrexed] (partner 0.2 µM)', 0.521),
  ('C[C@@H]1CN(CC(=O)Nc2ccc3c(c2)Cc2cccc(-c4cc(=O)cc(N5CCOCC5)o4)c2S3)C[C@H](C)O1 + CC(=O)c1c(C)c2cnc(Nc3ccc(N4CCNCC4)cn3)nc2n(C2CCCC2)c1=O [Palbociclib] (partner 0.5 µM)', 0.495),
  ('COc1cc(N2CCC(C(N)=O)CC2)ccc1Nc1nc(N)c(Cl)c(Nc2ccccc2S(=O)(=O)C(C)C)n1 [HG-5-88-01] + CCNC(=O)c1noc(-c2cc(C(C)C)c(O)cc2O)c1-c1ccc(CN2CCOCC2)cc1 [Luminespib] (partner 0.01 µM)', 0.241);

*Q* Field request: relative viability | item: COc1cc(N2CCC(C(N)=O)CC2)ccc1Nc1nc(N)c(Cl)c(Nc2ccccc2S(=O)(=O)C(C)C)n1 [HG-5-88-01] + O=C(c1cc(Cc2n[nH]c(=O)c3ccccc23)ccc1F)N1CCN(C(=O)C2CC2)CC1 [Olaparib] (partner 8 µM)
*A* 0.194

*Q* Note, next up: C[C@@H]1CN(CC(=O)Nc2ccc3c(c2)Cc2cccc(-c4cc(=O)cc(N5CCOCC5)o4)c2S3)C[C@H](C)O1 + CCNC(=O)c1noc(-c2cc(C(C)C)c(O)cc2O)c1-c1ccc(CN2CCOCC2)cc1 [Luminespib] (partner 0.01 µM)
*A* 0.178

*Q* Note, next up: COc1cc(N2CCC(C(N)=O)CC2)ccc1Nc1nc(N)c(Cl)c(Nc2ccccc2S(=O)(=O)C(C)C)n1 [HG-5-88-01] + Cc1nc(NC(=O)N2CCC[C@H]2C(N)=O)sc1-c1ccnc(C(C)(C)C(F)(F)F)c1 [Alpelisib] (partner 2 µM)
*A* 0.496

*Q* Note, next up: Clc1ccc(Nc2nnc(Cc3ccncc3)c3ccccc23)cc1 [Vatalanib] + CC(=O)c1c(C)c2cnc(Nc3ccc(N4CCNCC4)cn3)nc2n(C2CCCC2)c1=O [Palbociclib] (partner 0.5 µM)
*A* 0.468

*Q* Note, next up: COc1cc(N2CCC(C(N)=O)CC2)ccc1Nc1nc(N)c(Cl)c(Nc2ccccc2S(=O)(=O)C(C)C)n1 [HG-5-88-01] + COc1cccc2cc(-c3nc([C@H]4CC[C@H](C(=O)O)CC4)n4ncnc(N)c34)[nH]c12 [OSI-027] (partner 0.5 µM)
*A* 0.238

*Q* Note, next up: Clc1ccc(Nc2nnc(Cc3ccncc3)c3ccccc23)cc1 [Vatalanib] + Cc1cc(Nc2cc(N3CCN(C)CC3)nc(Sc3ccc(NC(=O)C4CC4)cc3)n2)n[nH]1 [Tozasertib] (partner 0.1 µM)
*A* 0.578

*Q* Note, next up: Clc1ccc(Nc2nnc(Cc3ccncc3)c3ccccc23)cc1 [Vatalanib] + COc1cccc2cc(-c3nc([C@H]4CC[C@H](C(=O)O)CC4)n4ncnc(N)c34)[nH]c12 [OSI-027] (partner 0.5 µM)
*A* 0.387
